Test system: MDA-MB-231
Experiment: Cytotoxicity against human MDA-MB-231 cells by MTT assay
Type: functional, cell-based
OUTCOME MEASURE: IC50
Be sure to follow the number with its unit.

For CCCC(=O)O[C@]1(C)CC[C@H](O)[C@@](C)(O)C[C@H]2O[C@@H]1[C@H]1[C@@H]2C(C)=CC[C@@H]1C(C)C , what is its reported IC50? 41 µM

Source of measurements: ChEMBL document CHEMBL1629413
